Entry source: patent US9278914B2

Tested on: intact male Sprague-Dawley rats
Method description: Anabolic and androgenic activity in intact male rats, daily oral gavage
Type: in vivo, rat
Protocol conditions: 0.01 mg/day oral
Value kind: Prostate weight

// worked examples, Prostate weight included
Form field: reported Prostate weight of C[C@](O)(COc1ccc(C#N)cc1)C(=O)Nc1ccc(C#N)c(C(F)(F)F)c1 [S-XXV]
111%±21%

Form field: reported Prostate weight of C[C@](O)(COc1ccc(Cl)c(F)c1)C(=O)Nc1ccc(C#N)c(C(F)(F)F)c1 [S-II]
117%±20%

Form field: reported Prostate weight of C[C@](O)(COc1ccc(C#N)cc1)C(=O)Nc1ccc(C#N)c(Cl)c1 [S-XXIV]
103%±10%

Further cases:
Form field: reported Prostate weight of C[C@](O)(COc1ccc(C#N)c(F)c1)C(=O)Nc1ccc(C#N)c(C(F)(F)F)c1 [S-XXIII]
98%±21%

---

Method description: Pharmacokinetics in beagle dogs
Format: in vivo
Protocol conditions: dog, plasma, oral
Value kind: clearance
Answer by giving the amount and then stating its unit.

Form field: reported clearance of C[C@](O)(COc1ccc(Cl)c(F)c1)C(=O)Nc1ccc(C#N)c(C(F)(F)F)c1
0.36 mL/min/kg

---

Listing: Prostate weight of selected compounds
Test system: castrated (ORX) male Sprague-Dawley rats
Method description: Anabolic and androgenic activity in castrated (ORX) male rats, daily oral gavage for fourteen days
Assay type: in vivo, rat
Protocol conditions: ORX rats; 0.03 mg/day oral

// worked examples, Prostate weight included
Can you look up Prostate weight on castrated (ORX) male Sprague-Dawley rats for C[C@](O)(COc1ccc(C#N)cc1)C(=O)Nc1ccc(C#N)c(Cl)c1 ?
31%±3%

Can you look up Prostate weight on castrated (ORX) male Sprague-Dawley rats for C[C@](O)(COc1ccc(C#N)c(F)c1)C(=O)Nc1ccc(C#N)c(C(F)(F)F)c1 ?
37%±9%

Can you look up Prostate weight on castrated (ORX) male Sprague-Dawley rats for C[C@](O)(COc1ccc(Cl)c(F)c1)C(=O)Nc1ccc(C#N)c(C(F)(F)F)c1 ?
26%±7%

Let's switch to this compound now.
Can you look up Prostate weight on castrated (ORX) male Sprague-Dawley rats for C[C@](O)(COc1ccc(C#N)cc1)C(=O)Nc1ccc(C#N)c(C(F)(F)F)c1 ?
20%±5%

---

Listing: Levator ani muscle weight of selected compounds
Test system: intact male Sprague-Dawley rats
Method description: Anabolic and androgenic activity in intact male rats, daily oral gavage
Type: in vivo, rat
Protocol conditions: 0.03 mg/day oral

Form field: reported Levator ani muscle weight of C[C@](O)(COc1ccc(Cl)c(F)c1)C(=O)Nc1ccc(C#N)c(C(F)(F)F)c1 [S-II]
98%±7%

Form field: reported Levator ani muscle weight of C[C@](O)(COc1ccc(C#N)c(F)c1)C(=O)Nc1ccc(C#N)c(C(F)(F)F)c1 [S-XXIII]
134%±8%

Form field: reported Levator ani muscle weight of C[C@](O)(COc1ccc(C#N)cc1)C(=O)Nc1ccc(C#N)c(C(F)(F)F)c1 [S-XXV]
116%±7%

Form field: reported Levator ani muscle weight of C[C@](O)(COc1ccc(C#N)cc1)C(=O)Nc1ccc(C#N)c(Cl)c1 [S-XXIV]
103%±7%

---

System: intact male Sprague-Dawley rats
Method description: Anabolic and androgenic activity in intact male rats, daily oral gavage
Format: in vivo, rat
Protocol conditions: 1 mg/day oral
Listing: Levator ani muscle weight of selected compounds

// worked examples, Levator ani muscle weight included
Form field: reported Levator ani muscle weight of C[C@](O)(COc1ccc(Cl)c(F)c1)C(=O)Nc1ccc(C#N)c(C(F)(F)F)c1
129%±10%

Form field: reported Levator ani muscle weight of C[C@](O)(COc1ccc(C#N)cc1)C(=O)Nc1ccc(C#N)c(Cl)c1
118%±7%

Form field: reported Levator ani muscle weight of C[C@](O)(COc1ccc(C#N)c(F)c1)C(=O)Nc1ccc(C#N)c(C(F)(F)F)c1
147%±10%

Further cases:
Form field: reported Levator ani muscle weight of C[C@](O)(COc1ccc(C#N)cc1)C(=O)Nc1ccc(C#N)c(C(F)(F)F)c1
146%±17%

---

System: castrated (ORX) male Sprague-Dawley rats
Method description: Anabolic and androgenic activity in castrated (ORX) male rats, daily oral gavage for fourteen days
Type: in vivo, rat
Protocol conditions: ORX rats; 1 mg/day oral
Listing: Seminal vesicle weight of selected compounds

// worked examples, Seminal vesicle weight included
Form field: reported Seminal vesicle weight of C[C@](O)(COc1ccc(C#N)c(F)c1)C(=O)Nc1ccc(C#N)c(C(F)(F)F)c1
160%±7%

Form field: reported Seminal vesicle weight of C[C@](O)(COc1ccc(Cl)c(F)c1)C(=O)Nc1ccc(C#N)c(C(F)(F)F)c1
100%±8%

Form field: reported Seminal vesicle weight of C[C@](O)(COc1ccc(C#N)cc1)C(=O)Nc1ccc(C#N)c(C(F)(F)F)c1
80%±6%

Let's switch to this compound now.
Form field: reported Seminal vesicle weight of C[C@](O)(COc1ccc(C#N)cc1)C(=O)Nc1ccc(C#N)c(Cl)c1
69%±14%

---

Method description: Pharmacokinetics in beagle dogs
Assay type: in vivo
Protocol conditions: dog, plasma, oral
Value kind: half-life (h)
Report only the number, with the unit h understood.

Form field: reported half-life of C[C@](O)(COc1ccc(Cl)c(F)c1)C(=O)Nc1ccc(C#N)c(C(F)(F)F)c1
37

---

Method description: Pharmacokinetics in beagle dogs
Format: in vivo
Protocol conditions: dog, plasma, oral, read-out: Vz
Value kind: Vd (L/kg)
Report only the number, with the unit L/kg understood.

Form field: reported Vd of C[C@](O)(COc1ccc(Cl)c(F)c1)C(=O)Nc1ccc(C#N)c(C(F)(F)F)c1
1.27

---

Tested on: intact male Sprague-Dawley rats
Method description: Anabolic and androgenic activity in intact male rats, daily oral gavage
Assay type: in vivo, rat
Protocol conditions: 0.3 mg/day oral
Value kind: Levator ani muscle weight

// worked examples, Levator ani muscle weight included
Form field: reported Levator ani muscle weight of C[C@](O)(COc1ccc(Cl)c(F)c1)C(=O)Nc1ccc(C#N)c(C(F)(F)F)c1 [S-II]
110%±5%

Form field: reported Levator ani muscle weight of C[C@](O)(COc1ccc(C#N)cc1)C(=O)Nc1ccc(C#N)c(Cl)c1 [S-XXIV]
103%±5%

Form field: reported Levator ani muscle weight of C[C@](O)(COc1ccc(C#N)c(F)c1)C(=O)Nc1ccc(C#N)c(C(F)(F)F)c1 [S-XXIII]
134%±11%

Let's switch to this compound now.
Form field: reported Levator ani muscle weight of C[C@](O)(COc1ccc(C#N)cc1)C(=O)Nc1ccc(C#N)c(C(F)(F)F)c1 [S-XXV]
134%±7%

---

Listing: Levator ani muscle weight of selected molecules
System: intact male Sprague-Dawley rats
Method description: Anabolic and androgenic activity in intact male rats, daily oral gavage
Format: in vivo, rat
Protocol conditions: 0.01 mg/day oral

// worked examples, Levator ani muscle weight included
Form field: reported Levator ani muscle weight of C[C@](O)(COc1ccc(C#N)cc1)C(=O)Nc1ccc(C#N)c(Cl)c1 [S-XXIV]
107%±5%

Form field: reported Levator ani muscle weight of C[C@](O)(COc1ccc(Cl)c(F)c1)C(=O)Nc1ccc(C#N)c(C(F)(F)F)c1 [S-II]
100%±10%

Form field: reported Levator ani muscle weight of C[C@](O)(COc1ccc(C#N)cc1)C(=O)Nc1ccc(C#N)c(C(F)(F)F)c1 [S-XXV]
120%±12%

Let's switch to this molecule now.
Form field: reported Levator ani muscle weight of C[C@](O)(COc1ccc(C#N)c(F)c1)C(=O)Nc1ccc(C#N)c(C(F)(F)F)c1 [S-XXIII]
116%±7%

---

Method description: Metabolic stability measured in human liver microsomes
Assay type: in vitro ADME
Protocol conditions: human, human liver microsomes, pH 7.4; Phase I only; read-out: CLint (ul/min/mg) Phase I only
Value kind: microsomal CLint at 0.6 μM

Form field: reported microsomal CLint at 0.6 μM of C[C@](O)(COc1ccc(Cl)c(F)c1)C(=O)Nc1ccc(C#N)c(C(F)(F)F)c1
< 1 µL/min/mg
